Assay: In vivo pharmacokinetics in mice
Design: species or system female NMRI mice
Conditions: mouse, whole blood, po, 5 mg kg^−1, female NMRI mice, blood
readoutName: Cmax (ng/mL)
Numbers only, in ng/mL.

Req: Param item = CC(c1ccccc1)n1c(=O)[nH]c2ncc(-c3ccc(F)cc3)nc21 (stereo not shown) ; retrieve measured Cmax.
Resp: 110

====

Molecular target: UniProt P06213
Sequence (P06213 28-1382): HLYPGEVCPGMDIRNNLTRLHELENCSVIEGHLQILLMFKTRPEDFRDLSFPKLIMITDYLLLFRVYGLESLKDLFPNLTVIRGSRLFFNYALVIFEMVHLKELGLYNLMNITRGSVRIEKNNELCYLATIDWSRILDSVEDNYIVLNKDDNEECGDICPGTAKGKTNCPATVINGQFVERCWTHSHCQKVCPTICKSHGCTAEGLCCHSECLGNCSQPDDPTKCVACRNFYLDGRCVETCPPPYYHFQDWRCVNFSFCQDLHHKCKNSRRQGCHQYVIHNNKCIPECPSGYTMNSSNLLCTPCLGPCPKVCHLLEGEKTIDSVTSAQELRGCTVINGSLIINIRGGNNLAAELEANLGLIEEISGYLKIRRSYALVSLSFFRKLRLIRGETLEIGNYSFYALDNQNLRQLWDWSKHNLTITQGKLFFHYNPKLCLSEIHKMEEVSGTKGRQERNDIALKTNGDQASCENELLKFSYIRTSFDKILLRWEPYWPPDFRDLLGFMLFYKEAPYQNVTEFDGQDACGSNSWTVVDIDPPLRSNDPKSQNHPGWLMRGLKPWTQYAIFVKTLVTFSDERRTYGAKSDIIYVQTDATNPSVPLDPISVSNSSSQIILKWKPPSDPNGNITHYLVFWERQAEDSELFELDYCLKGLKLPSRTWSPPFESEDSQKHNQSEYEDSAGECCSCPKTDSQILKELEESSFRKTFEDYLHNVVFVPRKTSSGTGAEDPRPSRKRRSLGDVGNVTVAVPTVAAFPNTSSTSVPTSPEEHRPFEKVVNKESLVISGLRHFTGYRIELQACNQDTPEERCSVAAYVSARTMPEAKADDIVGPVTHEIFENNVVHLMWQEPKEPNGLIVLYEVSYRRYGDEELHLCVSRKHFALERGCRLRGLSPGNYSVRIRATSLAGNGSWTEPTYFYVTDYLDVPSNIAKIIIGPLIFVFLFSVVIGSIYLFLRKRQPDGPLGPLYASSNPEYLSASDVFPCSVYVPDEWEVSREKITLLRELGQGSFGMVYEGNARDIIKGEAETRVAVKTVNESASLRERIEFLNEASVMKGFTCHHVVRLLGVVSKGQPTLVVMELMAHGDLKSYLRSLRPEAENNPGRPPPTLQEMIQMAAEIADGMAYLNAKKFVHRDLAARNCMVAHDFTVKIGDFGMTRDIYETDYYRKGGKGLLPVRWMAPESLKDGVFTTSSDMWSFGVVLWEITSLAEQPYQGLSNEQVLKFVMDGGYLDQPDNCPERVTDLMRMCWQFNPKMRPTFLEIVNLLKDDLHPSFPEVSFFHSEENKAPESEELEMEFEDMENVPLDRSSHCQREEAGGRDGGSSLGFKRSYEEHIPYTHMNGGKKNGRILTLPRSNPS
Assay: Kinase panel: IR-HIS
Type: biochemical, human/mammalian
Settings: compound at 10 μM, read-out: % of activity respect of the control
What remaining activity at 10 µM was measured for each of the following?
Numbers only, in %.

Examples with answers:
>  <molecule>
O=c1[nH]c2ncc(-c3ccc(F)cc3)nc2n1C1CCCCC1

>  <remaining activity at 10 µM, %>
119

$$$$
>  <molecule>
CC(c1ccccc1)n1c(=O)[nH]c2ncc(-c3ccc(F)cc3)nc21 (stereo not shown)

>  <remaining activity at 10 µM, %>
88

$$$$
>  <molecule>
C[C@H](c1ccccc1)n1c(=O)[nH]c2ncc(-c3ccccc3)nc21

>  <remaining activity at 10 µM, %>
93

$$$$

Next up:
Req: Param item = "O=c1[nH]c2ncc(-c3ccc(F)cc3)nc2n1CC1CC1" ; retrieve measured remaining activity at 10 µM.
Resp: 109

====

What remaining activity at 10 µM was measured for each of the following?
Biological target: CAMKKb (Homo sapiens)
Sequence (Q96RR4 whole entry): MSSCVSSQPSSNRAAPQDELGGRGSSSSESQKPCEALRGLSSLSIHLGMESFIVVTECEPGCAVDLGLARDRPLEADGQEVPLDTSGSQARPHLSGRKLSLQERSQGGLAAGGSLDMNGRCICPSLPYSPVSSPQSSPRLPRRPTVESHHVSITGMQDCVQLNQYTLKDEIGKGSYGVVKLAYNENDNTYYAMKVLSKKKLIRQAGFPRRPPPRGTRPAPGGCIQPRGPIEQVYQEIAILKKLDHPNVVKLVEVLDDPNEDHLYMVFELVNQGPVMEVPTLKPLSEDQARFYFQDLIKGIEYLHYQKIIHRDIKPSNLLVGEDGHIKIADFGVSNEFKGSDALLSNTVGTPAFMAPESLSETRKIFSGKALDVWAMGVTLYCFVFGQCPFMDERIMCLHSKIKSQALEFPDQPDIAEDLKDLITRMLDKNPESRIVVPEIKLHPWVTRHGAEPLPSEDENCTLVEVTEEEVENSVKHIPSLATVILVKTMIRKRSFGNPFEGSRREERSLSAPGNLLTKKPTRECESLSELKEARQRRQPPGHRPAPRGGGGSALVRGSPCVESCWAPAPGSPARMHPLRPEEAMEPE
Assay: Kinase panel: CAMKKb
Type: biochemical, human/mammalian
Details: compound at 10 μM, read-out: % of activity respect of the control
Give bare numbers, in %.

>  <compound>
O=c1[nH]c2ncc(-c3ccc(F)cc3)nc2n1C1CCCCC1 [Compound 12]

>  <remaining activity at 10 µM (%)>
104

$$$$
>  <compound>
CC(c1ccccc1)n1c(=O)[nH]c2ncc(-c3ccc(F)cc3)nc21 (stereo not shown) [Compound 1]

>  <remaining activity at 10 µM (%)>
101

$$$$
>  <compound>
O=c1[nH]c2ncc(-c3ccc(F)cc3)nc2n1CC1CC1 [Compound 10]

>  <remaining activity at 10 µM (%)>
98

$$$$

Next up:
Req: Param item = C[C@H](c1ccccc1)n1c(=O)[nH]c2ncc(-c3ccccc3)nc21 [Compound 14] ; retrieve measured remaining activity at 10 µM.
Resp: 86

====

What remaining activity at 10 µM was measured for each of the following?
Molecular target: UniProtKB Q9NQU5
Sequence (Q9NQU5 whole entry): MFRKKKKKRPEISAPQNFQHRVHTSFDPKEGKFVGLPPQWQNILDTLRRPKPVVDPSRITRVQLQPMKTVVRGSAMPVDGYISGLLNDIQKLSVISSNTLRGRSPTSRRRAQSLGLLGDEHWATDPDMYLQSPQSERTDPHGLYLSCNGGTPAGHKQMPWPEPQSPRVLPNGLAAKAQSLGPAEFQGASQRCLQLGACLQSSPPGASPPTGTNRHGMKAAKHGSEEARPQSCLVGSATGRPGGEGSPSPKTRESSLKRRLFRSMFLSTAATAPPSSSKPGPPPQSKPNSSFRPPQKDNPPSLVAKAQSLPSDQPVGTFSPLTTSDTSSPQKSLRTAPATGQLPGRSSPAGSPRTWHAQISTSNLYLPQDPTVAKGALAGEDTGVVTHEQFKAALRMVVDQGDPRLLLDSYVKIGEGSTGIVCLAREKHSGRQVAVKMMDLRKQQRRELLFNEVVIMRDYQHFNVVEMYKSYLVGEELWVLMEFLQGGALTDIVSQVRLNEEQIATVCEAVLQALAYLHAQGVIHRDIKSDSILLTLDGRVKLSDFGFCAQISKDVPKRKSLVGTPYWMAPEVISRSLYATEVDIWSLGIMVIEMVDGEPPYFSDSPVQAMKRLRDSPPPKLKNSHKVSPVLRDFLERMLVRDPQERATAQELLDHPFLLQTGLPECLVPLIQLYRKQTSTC
Test: Kinase panel: PAK6
Type: biochemical, human/mammalian
Conditions: compound at 10 μM, read-out: % of activity respect of the control
Give bare numbers, in %.

Parameter requested: remaining activity at 10 µM. Apply to each item below.
1. C[C@H](c1ccccc1)n1c(=O)[nH]c2ncc(-c3ccccc3)nc21 [Compound 14]
2. O=c1[nH]c2ncc(-c3ccc(F)cc3)nc2n1CC1CC1 [Compound 10]

Resp:
1. 88
2. 98

Parameter requested: remaining activity at 10 µM. Apply to each item below.
1. O=c1[nH]c2ncc(-c3ccc(F)cc3)nc2n1C1CCCCC1 [Compound 12]
2. CC(c1ccccc1)n1c(=O)[nH]c2ncc(-c3ccc(F)cc3)nc21 (stereo not shown) [Compound 1]

Resp:
1: 106; 2: 89

====

Biological target: JNK1 (Homo sapiens, UniProt P45983)
Sequence (P45983 whole entry): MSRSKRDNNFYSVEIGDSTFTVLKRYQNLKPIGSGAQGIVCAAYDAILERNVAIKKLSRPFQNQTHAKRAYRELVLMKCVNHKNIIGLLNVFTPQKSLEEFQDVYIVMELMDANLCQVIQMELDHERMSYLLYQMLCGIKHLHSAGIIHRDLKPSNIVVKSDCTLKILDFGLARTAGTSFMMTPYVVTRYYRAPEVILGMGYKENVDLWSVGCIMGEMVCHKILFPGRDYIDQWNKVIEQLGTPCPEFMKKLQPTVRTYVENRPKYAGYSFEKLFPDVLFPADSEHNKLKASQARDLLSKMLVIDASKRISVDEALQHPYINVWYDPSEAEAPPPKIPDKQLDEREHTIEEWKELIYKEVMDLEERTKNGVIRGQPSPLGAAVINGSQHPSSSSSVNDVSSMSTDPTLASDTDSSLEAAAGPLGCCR
Test: Kinase panel: JNK1
Type: biochemical, human/mammalian
Conditions: compound at 10 μM, read-out: % of activity respect of the control
readoutName: remaining activity at 10 µM (%)
Give bare numbers, in %.

Parameter requested: remaining activity at 10 µM. Apply to each item below.
1. O=c1[nH]c2ncc(-c3ccc(F)cc3)nc2n1C1CCCCC1 [Compound 12]
2. O=c1[nH]c2ncc(-c3ccc(F)cc3)nc2n1CC1CC1 [Compound 10]
3. CC(c1ccccc1)n1c(=O)[nH]c2ncc(-c3ccc(F)cc3)nc21 (stereo not shown) [Compound 1]
4. C[C@H](c1ccccc1)n1c(=O)[nH]c2ncc(-c3ccccc3)nc21 [Compound 14]

Resp:
1. 95
2. 100
3. 95
4. 97

====

Molecular target: YES1 (Homo sapiens, UniProt P07947)
Sequence (P07947 whole entry): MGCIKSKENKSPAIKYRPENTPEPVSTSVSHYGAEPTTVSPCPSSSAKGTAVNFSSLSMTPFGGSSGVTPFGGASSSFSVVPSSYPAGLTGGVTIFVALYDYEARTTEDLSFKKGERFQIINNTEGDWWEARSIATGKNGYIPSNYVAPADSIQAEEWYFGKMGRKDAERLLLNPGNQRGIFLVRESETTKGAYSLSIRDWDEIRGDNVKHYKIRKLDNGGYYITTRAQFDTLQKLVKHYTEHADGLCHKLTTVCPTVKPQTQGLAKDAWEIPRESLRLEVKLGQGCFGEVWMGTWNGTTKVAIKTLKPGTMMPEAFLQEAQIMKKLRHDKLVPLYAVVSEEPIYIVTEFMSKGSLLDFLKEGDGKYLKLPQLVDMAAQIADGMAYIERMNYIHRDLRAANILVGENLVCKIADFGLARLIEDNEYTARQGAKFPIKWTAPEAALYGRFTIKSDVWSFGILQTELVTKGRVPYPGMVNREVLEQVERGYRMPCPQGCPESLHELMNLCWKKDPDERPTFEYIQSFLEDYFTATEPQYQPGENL
Assay: Kinase panel: YES1
Type: biochemical, human/mammalian
Settings: compound at 10 μM, read-out: % of activity respect of the control
readoutName: remaining activity at 10 µM

Examples with answers:
>  <molecule>
O=c1[nH]c2ncc(-c3ccc(F)cc3)nc2n1C1CCCCC1

>  <readoutName>
remaining activity at 10 µM

>  <readoutValue>
96%

$$$$
>  <molecule>
CC(c1ccccc1)n1c(=O)[nH]c2ncc(-c3ccc(F)cc3)nc21 (stereo not shown)

>  <readoutName>
remaining activity at 10 µM

>  <readoutValue>
94%

$$$$
>  <molecule>
C[C@H](c1ccccc1)n1c(=O)[nH]c2ncc(-c3ccccc3)nc21

>  <readoutName>
remaining activity at 10 µM

>  <readoutValue>
71%

$$$$

Next up:
Req: Param item = "O=c1[nH]c2ncc(-c3ccc(F)cc3)nc2n1CC1CC1" ; retrieve measured remaining activity at 10 µM.
Resp: 96%

====

Biological target: UniProt Q15418
Assay: Kinase panel: RSK1
Format: biochemical, human/mammalian
Settings: compound at 10 μM, read-out: % of activity respect of the control
What remaining activity at 10 µM was measured for each of the following?

Examples with answers:
>  <compound>
CC(c1ccccc1)n1c(=O)[nH]c2ncc(-c3ccc(F)cc3)nc21 (stereo not shown)

>  <remaining activity at 10 µM>
96%

$$$$
>  <compound>
O=c1[nH]c2ncc(-c3ccc(F)cc3)nc2n1CC1CC1

>  <remaining activity at 10 µM>
85%

$$$$
>  <compound>
O=c1[nH]c2ncc(-c3ccc(F)cc3)nc2n1C1CCCCC1

>  <remaining activity at 10 µM>
89%

$$$$

Req: Param item = "C[C@H](c1ccccc1)n1c(=O)[nH]c2ncc(-c3ccccc3)nc21" ; retrieve measured remaining activity at 10 µM.
Resp: 89%

====

Target: PIM3 (Homo sapiens)
Assay: Kinase panel: PIM3
Format: biochemical, human/mammalian
Settings: compound at 10 μM, read-out: % of activity respect of the control
What remaining activity at 10 µM was measured for each of the following?
Answers are plain numbers, in %.

Examples with answers:
>  <compound>
O=c1[nH]c2ncc(-c3ccc(F)cc3)nc2n1CC1CC1

>  <unitsLabel>
%

>  <remaining activity at 10 µM>
89

$$$$
>  <compound>
C[C@H](c1ccccc1)n1c(=O)[nH]c2ncc(-c3ccccc3)nc21

>  <unitsLabel>
%

>  <remaining activity at 10 µM>
83

$$$$
>  <compound>
CC(c1ccccc1)n1c(=O)[nH]c2ncc(-c3ccc(F)cc3)nc21 (stereo not shown)

>  <unitsLabel>
%

>  <remaining activity at 10 µM>
83

$$$$

Req: Param item = "O=c1[nH]c2ncc(-c3ccc(F)cc3)nc2n1C1CCCCC1" ; retrieve measured remaining activity at 10 µM.
Resp: 90

====

Target: SYK (Homo sapiens, UniProt P43405)
Assay: Kinase panel: SYK
Type: biochemical, human/mammalian
Details: compound at 10 μM, read-out: % of activity respect of the control
What remaining activity at 10 µM was measured for each of the following?
Numbers only, in %.

Examples with answers:
>  <molecule>
C[C@H](c1ccccc1)n1c(=O)[nH]c2ncc(-c3ccccc3)nc21

>  <readoutValue>
84

$$$$
>  <molecule>
CC(c1ccccc1)n1c(=O)[nH]c2ncc(-c3ccc(F)cc3)nc21 (stereo not shown)

>  <readoutValue>
97

$$$$
>  <molecule>
O=c1[nH]c2ncc(-c3ccc(F)cc3)nc2n1CC1CC1

>  <readoutValue>
98

$$$$

Next up:
Req: Param item = "O=c1[nH]c2ncc(-c3ccc(F)cc3)nc2n1C1CCCCC1" ; retrieve measured remaining activity at 10 µM.
Resp: 100

====

Target: PLK1 (Homo sapiens)
Sequence (P53350 whole entry): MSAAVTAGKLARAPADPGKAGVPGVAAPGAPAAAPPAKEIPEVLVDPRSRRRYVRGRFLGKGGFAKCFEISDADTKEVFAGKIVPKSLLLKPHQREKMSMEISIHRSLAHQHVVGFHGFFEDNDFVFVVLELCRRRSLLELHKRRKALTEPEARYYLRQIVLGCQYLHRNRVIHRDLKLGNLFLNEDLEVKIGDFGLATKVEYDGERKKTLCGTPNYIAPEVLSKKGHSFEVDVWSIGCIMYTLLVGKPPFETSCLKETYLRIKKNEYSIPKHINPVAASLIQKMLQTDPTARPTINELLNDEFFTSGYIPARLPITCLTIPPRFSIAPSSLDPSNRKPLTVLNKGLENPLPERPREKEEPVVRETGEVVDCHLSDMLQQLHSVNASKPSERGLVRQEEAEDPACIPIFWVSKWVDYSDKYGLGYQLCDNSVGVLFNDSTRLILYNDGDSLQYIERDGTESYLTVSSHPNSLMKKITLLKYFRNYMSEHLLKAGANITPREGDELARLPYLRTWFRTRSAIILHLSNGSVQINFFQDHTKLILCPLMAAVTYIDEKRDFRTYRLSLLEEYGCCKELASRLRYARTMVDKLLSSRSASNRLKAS
Test: Kinase panel: PLK1
Format: biochemical, human/mammalian
Conditions: compound at 10 μM, read-out: % of activity respect of the control
What remaining activity at 10 µM was measured for each of the following?
One number for each entry, in %.

>  <compound>
O=c1[nH]c2ncc(-c3ccc(F)cc3)nc2n1CC1CC1 [Compound 10]

>  <unitsLabel>
%

>  <remaining activity at 10 µM>
102

$$$$
>  <compound>
O=c1[nH]c2ncc(-c3ccc(F)cc3)nc2n1C1CCCCC1 [Compound 12]

>  <unitsLabel>
%

>  <remaining activity at 10 µM>
117

$$$$
>  <compound>
CC(c1ccccc1)n1c(=O)[nH]c2ncc(-c3ccc(F)cc3)nc21 (stereo not shown) [Compound 1]

>  <unitsLabel>
%

>  <remaining activity at 10 µM>
111

$$$$

Next up:
Req: Param item = C[C@H](c1ccccc1)n1c(=O)[nH]c2ncc(-c3ccccc3)nc21 [Compound 14] ; retrieve measured remaining activity at 10 µM.
Resp: 104

====

Target: TBK1 (Homo sapiens)
Sequence (Q9UHD2 whole entry): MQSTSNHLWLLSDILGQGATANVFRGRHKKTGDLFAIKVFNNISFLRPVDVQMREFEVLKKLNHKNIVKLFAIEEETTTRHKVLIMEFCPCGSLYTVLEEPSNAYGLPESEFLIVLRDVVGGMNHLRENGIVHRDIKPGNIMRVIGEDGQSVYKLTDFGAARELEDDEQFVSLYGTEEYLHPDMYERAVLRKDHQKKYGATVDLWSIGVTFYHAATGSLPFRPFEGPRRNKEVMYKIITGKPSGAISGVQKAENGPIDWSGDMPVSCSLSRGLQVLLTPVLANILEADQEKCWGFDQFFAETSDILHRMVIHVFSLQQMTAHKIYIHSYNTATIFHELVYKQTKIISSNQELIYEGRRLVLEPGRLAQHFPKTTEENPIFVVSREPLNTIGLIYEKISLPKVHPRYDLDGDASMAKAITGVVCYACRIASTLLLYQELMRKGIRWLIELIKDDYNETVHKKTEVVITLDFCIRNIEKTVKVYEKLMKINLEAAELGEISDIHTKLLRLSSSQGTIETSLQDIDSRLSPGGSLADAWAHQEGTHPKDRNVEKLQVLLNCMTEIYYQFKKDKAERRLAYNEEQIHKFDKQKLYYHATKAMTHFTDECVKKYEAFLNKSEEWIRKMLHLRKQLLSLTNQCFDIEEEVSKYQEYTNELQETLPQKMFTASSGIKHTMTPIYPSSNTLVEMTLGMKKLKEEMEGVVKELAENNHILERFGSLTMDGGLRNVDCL
Assay: Kinase panel: TBK1
Type: biochemical, human/mammalian
Details: compound at 10 μM, read-out: % of activity respect of the control
What remaining activity at 10 µM was measured for each of the following?
Numbers only, in %.

Examples with answers:
>  <molecule>
O=c1[nH]c2ncc(-c3ccc(F)cc3)nc2n1C1CCCCC1 [Compound 12]

>  <unitsLabel>
%

>  <remaining activity at 10 µM>
92

$$$$
>  <molecule>
O=c1[nH]c2ncc(-c3ccc(F)cc3)nc2n1CC1CC1 [Compound 10]

>  <unitsLabel>
%

>  <remaining activity at 10 µM>
95

$$$$
>  <molecule>
C[C@H](c1ccccc1)n1c(=O)[nH]c2ncc(-c3ccccc3)nc21 [Compound 14]

>  <unitsLabel>
%

>  <remaining activity at 10 µM>
100

$$$$

Req: Form entry - test system: TBK1 (Homo sapiens); read-out: remaining activity at 10 µM; molecule: CC(c1ccccc1)n1c(=O)[nH]c2ncc(-c3ccc(F)cc3)nc21 (stereo not shown) [Compound 1]
Resp: 95
